Overview of reported IC50 across a group of molecules:
molecular target: central receptors for benzodiazepines; test: Displacement of [3H]-RO 151788, rat central nervous system microsomal fractions; assay type: binding; details: corrected for DMSO, read-out: K0.5, central receptors, [^3 H]--RO 151788

{"SMILES_STRUCTURE": "CCOC(=O)CCCn1c(=O)n2cc(-c3ccccc3)nc2c2ccccc21", "MODIFIER": "=", "IC50 (µM)": 100}
{"SMILES_STRUCTURE": "CCN(CC)C(=O)Cn1c(=O)n2cc(-c3ccccc3)nc2c2c(Cl)cccc21", "MODIFIER": "=", "IC50 (µM)": 100}
{"SMILES_STRUCTURE": "CCCN(CCC)C(=O)Cn1c(=O)n2c(C)c(-c3cccc(Cl)c3)nc2c2ccccc21", "MODIFIER": ">", "IC50 (µM)": 100}
{"SMILES_STRUCTURE": "CCN(CC)C(=O)Cn1c(=O)n2cc(-c3ccsc3)nc2c2ccccc21", "MODIFIER": ">", "IC50 (µM)": 100}
